test system: Leishmania major; test: Antileishmanial activity against Leishmania major Friedlin promastigotes after 48 hrs by alamar blue assay; assay type: functional, organism-based; details: Leishmania major, Friedlin, 48 h; read-out: EC50
readout: EC50 (µM)

[[record]]
molecule = "COc1cc(CCCCC(=O)CCc2ccc(O)c(OC)c2)ccc1O"
readout = "EC50"
quantitative_result = 37

[[record]]
molecule = "COc1cc(/C=C/C(=O)CC(=O)/C=C/c2ccc(O)c(O)c2)ccc1O"
readout = "EC50"
quantitative_result = 4.3

[[record]]
molecule = "COc1cc(/C=C/C(O)=C/C(=O)/C=C/c2ccc(O)cc2)ccc1O [DEMETHOXYCURCUMIN]"
readout = "EC50"
quantitative_result = 37

[[record]]
molecule = "C=CCOc1ccc(/C=C/C(=O)CC(=O)/C=C/c2ccc(OCC=C)c(OC)c2)cc1OC"
readout = "EC50"
quantitative_result = 25

[[record]]
molecule = "O=C(/C=C/c1ccc(O)cc1)CC(=O)/C=C/c1ccc(O)c(O)c1"
readout = "EC50"
quantitative_result = 22

[[record]]
molecule = "COc1cc(/C=C/C(=O)CC(=O)/C=C/c2ccc(OC(=O)c3ccccc3)c(OC)c2)ccc1O"
readout = "EC50"
quantitative_result = 9.3

[[record]]
molecule = "COc1cc(/C=C/C(=O)CC(=O)/C=C/c2ccc(OCCO)cc2)ccc1O"
readout = "EC50"
quantitative_result = 9.7

[[record]]
molecule = "COc1ccc(CC/C=C/C(=O)CCc2ccc(OC)c(OC)c2)cc1OC"
readout = "EC50"
quantitative_result = 12

[[record]]
molecule = "COc1cc(CC/C=C/C(=O)CCc2ccc(OC(C)=O)c(OC)c2)ccc1OC(C)=O"
readout = "EC50"
quantitative_result = 7.8

[[record]]
molecule = "COc1ccc(/C=C/C(=O)CC(=O)/C=C/c2ccc(O)cc2)cc1"
readout = "EC50"
quantitative_result = 87


* * *

test system: Trypanosoma brucei brucei; test: Antitrypanosomal activity against Trypanosoma brucei brucei 427 after 48 hrs by alamar blue assay; format: functional, organism-based; details: Trypanosoma brucei, 427, 48 h; read-out: EC50
// boundary case: EC50 equal to 2000 nM maps to f; strictly smaller maps to t

[[record]]
compound = "COc1cc(/C=C/C=C/C(=O)CCc2ccc(O)c(OC)c2)ccc1O"
class_assignment = "f"

[[record]]
compound = "COc1cc(/C=C/C=C/C(=O)/C=C/c2ccc(O)c(OC)c2)ccc1O"
class_assignment = "t"

[[record]]
compound = "COc1cc(CCC(=O)CC(=O)CCc2ccc(O)cc2)ccc1O [TETRAHYDRODEMETHOXYCURCUMIN]"
class_assignment = "f"

[[record]]
compound = "C=CCOc1ccc(/C=C/C(=O)CC(=O)/C=C/c2ccc(OCC=C)c(OC)c2)cc1OC"
class_assignment = "t"

[[record]]
compound = "COc1cc(/C=C/C(=O)CC(=O)/C=C/c2ccc(OCC=C(C)C)cc2)ccc1OCC=C(C)C"
class_assignment = "t"

[[record]]
compound = "COc1cc(CC/C=C/C(=O)CCc2ccc(OC(C)=O)c(OC)c2)ccc1OC(C)=O"
class_assignment = "t"

[[record]]
compound = "CCCOc1ccc(/C=C/C(=O)CC(=O)/C=C/c2ccc(OCCC)c(OC)c2)cc1OC"
class_assignment = "t"

[[record]]
compound = "COc1cc(CC/C=C/C(=O)CCc2ccc(O)c(OC)c2)ccc1O"
class_assignment = "t"

[[record]]
compound = "COc1cc(CCCCC(=O)CCc2ccc(O)c(OC)c2)ccc1O"
class_assignment = "f"

[[record]]
compound = "COc1cc(/C=C/C(=O)CC(=O)/C=C/c2ccc(O)c(OC)c2)ccc1O"
class_assignment = "f"

[[record]]
compound = "O=C(/C=C/CCc1ccc(O)c(O)c1)CCc1ccc(O)c(O)c1 [DEHYDROHIRSUTANONOL]"
class_assignment = "f"

[[record]]
compound = "COc1cc(CC/C=C/C(O)CCc2ccc(O)c(OC)c2)ccc1O (centres undefined)"
class_assignment = "f"

[[record]]
compound = "COc1cc(/C=C/C(O)=C/C(=O)/C=C/c2ccc(O)cc2)ccc1O"
class_assignment = "f"

[[record]]
compound = "CCCCCOc1ccc(CC/C=C/C(=O)CCc2ccc(OCCCCC)c(OC)c2)cc1OC"
class_assignment = "t"

[[record]]
compound = "COc1cc(/C=C/C(=O)CC(=O)/C=C/c2ccc(OCC=C(C)C)c(OC)c2)ccc1OCC=C(C)C"
class_assignment = "t"

[[record]]
compound = "O=C(CCc1ccc(O)c(O)c1)CC(=O)CCc1ccc(O)c(O)c1 [DIDEMETHYLTETRAHYDROCURCUMIN]"
class_assignment = "t"

[[record]]
compound = "COc1cc(CCC(=O)CC(=O)CCc2ccc(O)c(O)c2)ccc1O"
class_assignment = "t"

[[record]]
compound = "N=C(N)c1ccc(/N=N/Nc2ccc(C(=N)N)cc2)cc1"
class_assignment = "t"

[[record]]
compound = "COc1cc(CCC(=O)CC(=O)CCc2ccc(O)c(OC)c2)ccc1O [TETRAHYDROCURCUMIN]"
class_assignment = "f"


* * *

test system: Trypanosoma brucei brucei; assay: Antitrypanosomal activity against diminazene-resistant Trypanosoma brucei brucei deltaTbat1-KO after 48 hrs by alamar blue assay; format: functional, organism-based
readout: EC50

[[record]]
molecule = "COc1cc(CCC(=O)CC(O)CCc2ccc(O)c(OC)c2)ccc1O (stereo not given) [HEXAHYDROCURCUMIN]"
target_of_assay = "Trypanosoma brucei brucei"
result = "38 µM"

[[record]]
molecule = "COc1cc(/C=C/C=C/C(=O)/C=C/c2ccc(O)c(OC)c2)ccc1O"
target_of_assay = "Trypanosoma brucei brucei"
result = "1.4 µM"

[[record]]
molecule = "C=CCOc1ccc(/C=C/C(=O)CC(=O)/C=C/c2ccc(OCC=C)c(OC)c2)cc1OC"
target_of_assay = "Trypanosoma brucei brucei"
result = "1.9 µM"

[[record]]
molecule = "COc1cc(/C=C/C(=O)CC(=O)/C=C/c2ccc(O)cc2)ccc1OC(=O)c1ccccc1"
target_of_assay = "Trypanosoma brucei brucei"
result = "1.6 µM"

[[record]]
molecule = "O=C(/C=C/c1ccc(O)cc1)CC(=O)/C=C/c1ccc(O)c(O)c1"
target_of_assay = "Trypanosoma brucei brucei"
result = "1.8 µM"


* * *

Listing of recorded pEC50 by entry.
tested on: Trypanosoma brucei brucei; assay: Antitrypanosomal activity against Trypanosoma brucei brucei 427 after 48 hrs by alamar blue assay; assay type: functional, organism-based; conditions: Trypanosoma brucei, 427, 48 h; read-out: EC50
pEC50: −log10 of the molar value.
readout: pEC50

[[record]]
compound = "COc1cc(/C=C/C(=O)CC(=O)/C=C/c2ccc(OC(C)=O)c(OC)c2)ccc1OC(C)=O"
quantitative_result = 5.80

[[record]]
compound = "O=C(/C=C/c1ccc(O)cc1)CC(=O)/C=C/c1ccc(OC(=O)c2ccccc2)cc1"
quantitative_result = 5.39

[[record]]
compound = "O=C(/C=C/c1ccc(O)cc1)CC(=O)/C=C/c1ccc(O)cc1"
quantitative_result = 5.11

[[record]]
compound = "COc1cc(/C=C/C(=O)CC(=O)/C=C/c2ccc(OCCO)cc2)ccc1O"
quantitative_result = 6.15

[[record]]
compound = "COc1ccc(/C=C/C(=O)CC(=O)/C=C/c2ccc(O)cc2)cc1"
quantitative_result = 5.05

[[record]]
compound = "O=C(/C=C/c1ccc(O)c(O)c1)CC(=O)/C=C/c1ccc(O)c(O)c1"
quantitative_result = 5.74

[[record]]
compound = "COc1cc(/C=C/C(=O)CC(=O)/C=C/c2ccc(OC(=O)c3ccccc3)cc2)ccc1O"
quantitative_result = 5.43

[[record]]
compound = "COc1ccc(/C=C/C(=O)CC(=O)/C=C/c2ccc(OC)c(OC)c2)cc1"
quantitative_result = 5.80

[[record]]
compound = "COc1cc(/C=C/C(=O)CC(=O)/C=C/c2ccc(OCC=C(C)C)c(OC)c2)ccc1O"
quantitative_result = 5.85

[[record]]
compound = "C=CCOc1ccc(/C=C/C(=O)CC(=O)/C=C/c2ccc(O)c(OC)c2)cc1OC"
quantitative_result = 5.62

[[record]]
compound = "COc1cc(/C=C/C(=O)CC(=O)/C=C/c2ccc(OCCO)c(OC)c2)ccc1O"
quantitative_result = 5.54

[[record]]
compound = "COc1cc(/C=C/C(=O)CC(=O)/C=C/c2ccc(OC(C)=O)cc2)ccc1OC(C)=O"
quantitative_result = 5.82

[[record]]
compound = "COc1cc(/C=C/C(=O)CC(=O)/C=C/c2ccc(OCCO)c(OC)c2)ccc1OCCO"
quantitative_result = 5.74

[[record]]
compound = "COc1cc(/C=C/C(=O)/C=C/CCc2ccc(O)c(OC)c2)ccc1O"
quantitative_result = 6.66

[[record]]
compound = "COc1cc(CCC(=O)CC(O)CCc2ccc(O)c(OC)c2)ccc1O (centres undefined) [HEXAHYDROCURCUMIN]"
quantitative_result = 4.77

[[record]]
compound = "O=C(CCc1ccc(O)cc1)CC(=O)CCc1ccc(O)cc1"
quantitative_result = 5.60

[[record]]
compound = "COc1ccc(/C=C/C(=O)CC(=O)/C=C/c2ccc(O)c(OC)c2)cc1"
quantitative_result = 5.77

[[record]]
compound = "COc1cc(/C=C/C(=O)CC(=O)/C=C/c2cc(OC)c(O)c([N+](=O)[O-])c2)ccc1O"
quantitative_result = 4.82

[[record]]
compound = "COc1cc(CCC(O)CC(O)CCc2ccc(O)c(OC)c2)ccc1O (centres undefined) [OCTAHYDROCURCUMIN]"
quantitative_result = 4.11

